- Test system: pigweed (Amaranthus retroflexus)
- Assay Info: Test A postemergence, visual injury rating
- Type: in vivo
- Test Settings: 125 g ai/ha, 0 to 100 scale, 0 is no effect, 100 is complete control, approximately 10 days
Measured Quantity: Pigweed plant response rating
// keep it numeric: no unit symbol after the value

Report Pigweed plant response rating for O=Cc1c(Cl)cccc1Oc1ncc(Cl)cn1 [Compound 139] please.
0

Would you kindly share the measured Pigweed plant response rating for N#CC(CCCCC(F)(F)F)c1ccccc1Oc1ncc(Cl)cn1 (centres unmarked) [Compound 145] ?
100

Need Pigweed plant response rating, item FC(F)(F)CCCCCc1c(Br)cccc1Oc1ncc(Cl)cn1 [Compound 121]
100

Please report the recorded Pigweed plant response rating for FC(F)(F)CCCOCc1c(Br)cccc1Oc1ncc(Cl)cn1 [Compound 74] .
100

What Pigweed plant response rating value was documented for this compound, FC(F)(F)CCCCc1c(Oc2ncc(Cl)cn2)cccc1C1CC1 [Compound 135] ?
90

All values here come from patent US11053204B2.
